# target system: HLA-DRB1*04:01 (plate-bound, peptide-binding assays) (human)
# protocol description: competition peptide-binding assay on plates
Square brackets hold non-standard residues; d marks the D form. Ends that are not written are not given here. Cit = NC(=O)NCCC[C@H](N)C(=O)O
endpoint: IC50 (nM)

INPUT: Data request, read-out IC50, for VIGMDVAASEFFRSG [α-enolase peptide 241 (residues 241–255), native]
OUTPUT: 2000

I. TSKGLF[Cit]AAVPSGAS [α-enolase peptide Cit26 (residues 26–40), citrullinated]
II. TSKGLFRAAVPSGAS [α-enolase peptide 26 (residues 26–40), native]
III. VIGMDVAASEFF[Cit]SG [α-enolase peptide Cit241 (residues 241–255), citrullinated]
INPUT: Order the 3 binders from highest to lowest IC50. Sort the labels as requested; that list is your answer.
OUTPUT: II, III, I
(II: 4000 nM, III: 2500 nM, I: 1500 nM)
